- experiment-notes: NCI Yeast Anticancer Drug Screen. Data for the cln2 rad14 strain (AID 165)
- measurement-conditions: S. cerevisiae cln2 rad14 strain, at 50.0 µM, active compounds read high
- Description: Growth inhibition of yeast strains with defined genetic alterations is measured as a screen for potential anti-cancer activity. Selected strains with alterations in DNA damage repair or cell cycle control were exposed to compounds and growth inhibition was measured relative to vehicle treated controls. The strain used in this assay is cln2 rad14
The panel holds about 79,000 compounds, 15% with a hit somewhere; the sample as a whole holds those more often.
I would appreciate it if you labelled entries TRUE when growth inhibition is 70% or higher, otherwise FALSE.

Some solved entries appear below for comparison.
| molecule | label-value |
| --- | --- |
| O=C(O)/C(Cl)=C(/Cl)C(=O)Nc1cccc(Cl)c1 | TRUE |
| O=C(Nc1ccc(C2=NCCN2)cc1)c1cc(C(=O)Nc2ccc(C3=NCCN3)cc2)cc(C(=O)Nc2ccc(C3=NCCN3)cc2)c1 | TRUE |
| CCCCC(O)CCCC | FALSE |
| O=C1C(CCl)=CS(=O)(=O)c2ccccc21 | TRUE |
| C=CCSc1nc2ccccc2c(=O)n1Cc1ccco1 | FALSE |
| CC(C)c1cc(O)c(C(C)(C)C)cc1Cl | TRUE |

Now for another entry.
Does the molecule C1=Cc2ccccc2/C1=C/c1ccccc1 have recorded growth inhibition that is 70% or more?
FALSE
